Assay: Components of the Cytosolic LPS Sensing Pathway: Gene Identification via Genome-wide siRNA Screen;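 note: robust z of the log signal after scaling to non-targeting control siRNA wells of the plate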
Conditions: RAW264.7 macrophages, IL-1a HTRF, actives lie on both sides, screened at 100 nM (by protocol), cells primed 5 h with Pam3CSK4 first
The campaign covered roughly 53,000 sequences. About 3,700 (7%) were called active. The full list was thinned out, with actives kept by preference.
property-name: z-score

1) GCCUCGAGAUAUUCUUUGUTT against Snrnp200 : -2.07 (active)
2) GGCGGCCUUAGUAGAUAUCTT against Acsl4 : 0.677 (inactive)
3) GGGUCUUCAGUAUUAACACTT against Yae1d1 : 2.62 (active)
4) GGAGCAGAUUAAAUCCCUGTT against Krt8 : 2.46 (active)
5) GCUAUUUAUCACCAAGACATT against Plpp6 : -1.64 (inactive)
6) GGAGCAUCUAUGAUUACAATT against Iqcg : 3.24 (active)
7) GGAGUAAAGACAUUCAGGATT against Nlrp4f : 0.716 (inactive)
8) CAUCCCAGAGUGUUGUCUUTT against Olfr1325 : 1.97 (inactive)
9) GGACUAUUUGGAAACCUCCTT against Olfr1366 : -0.304 (inactive)
10) GCCUUGGACUGCUUUGGAUTT against Dync1li1 : -0.379 (inactive)
11) GGAUGAGAAUGGCACCAGUTT against Prima1 : -1.4 (inactive)
12) CCAAUGAUUUCCUGCUAAATT against Lst1 : 3.21 (active)
13) CCCAUGAUAAUGAAUUAGCTT against Olfr378 : -0.537 (inactive)
14) GCAUCUCUUACUAAGAUUATT against Anxa4 : -0.433 (inactive)
15) CGUUUAAAGACUAGCAAGATT against Tab1 : 0.0468 (inactive)
16) CCUAUGGCCAUGAUCCUUATT against Olfr575 : 1.29 (inactive)
17) GGAAAUUCACACAGAUGAATT against Mtmr12 : -1.27 (inactive)
18) GGCUCAUUUGCUGAGUGUGTT against Fscn2 : 1.68 (inactive)
19) CAAUCCUCAACGAUUACAUTT against Ncor1 : 2.05 (active)
20) GGCUGUGCAAGCAAAACCUTT against Mad1l1 : -1.43 (inactive)
21) GGAAAAGUGACGGUAUCUATT against Rpsa : -2.04 (active)
22) GCCAGAGUUUAUUAACUGCTT against Stxbp6 : -0.809 (inactive)
23) GGAAUCGAAACCAAUGUGUTT against Il1rl2 : -0.471 (inactive)
24) GCUCUCACCUUCAUUUGAATT against Tmem174 : -1.37 (inactive)
25) GGAGCGCGUGAAACUGUCUTT against Fbxw4 : -0.752 (inactive)
26) GGCCAAGUUCAACAUUCCATT against Lilrb4a : 0.539 (inactive)
27) CCACUGAAGGAAGUUCGCUTT against Amer2 : 0.21 (inactive)
28) GGACCUGGAGAAAUUGAAGTT against Nlrp6 : 1.82 (inactive)
29) CGAAAGAGAUGAUGAUAAUTT against Arrdc3 : 0.641 (inactive)
30) CCCAGUUAUCCUGAAAAGUTT against Ears2 : 0.526 (inactive)
31) CGGAUUUCAUGGCUCAAGATT against Gfm2 : -0.123 (inactive)
